# Test system: UO-31 renal
# Protocol: NCI-60 one-dose screen, 48 h
# Experimental conditions: 10 µM unless noted
About 83,000 compounds went through this panel and 20% of them were active in at least one assay; those are over-represented in the sample as a whole. Calls of active or inactive are those of the source. How the source made its calls: active means growth percent below 10; inactive means the rest.
Classes used: active, inactive

{"columns": ["Mol", "Label class"],
 "data": [
  ["O=C([C@H]1C[C@H]1c1ccc(S(F)(F)(F)(F)F)cc1)N1CCN(c2cc(Cl)ccc2C(F)(F)F)CC1", "inactive"],
  ["COc1c(F)cc(-n2c(C(=O)N3CC(F)C3)cc3cccnc32)cc1F", "inactive"],
  ["C[N+]1=C(/C=C\\C=C\\c2ccccc2)C(C)(C)c2ccccc21", "inactive"],
  ["O=C(N/N=C/c1ccc(O)cc1O)c1cccc(Nc2ccnc(C(F)(F)F)c2)c1", "inactive"],
  ["Nc1nc(CSc2n[nH]c(N)n2)nc(Nc2ccccc2)n1", "inactive"],
  ["COc1ccc(Nc2nn3c(SCC(=O)c4ccc(C)cc4)nnc3s2)cc1", "inactive"],
  ["CCCCCCCC/C=C\\CCCCCCCCOc1ccccc1CC(=O)NCC[N+]1(C)CCOCC1", "inactive"],
  ["CC/C(=C(/c1ccc(O)cc1)c1ccc(OCCN2CCCCCC2)cc1)c1ccc(Cl)cc1", "inactive"],
  ["COc1ccc(Oc2nc(Nc3ccc(N4CCOCC4)cc3)ncc2NC(=O)c2cc(OC)cc(OC)c2)cc1", "inactive"],
  ["COc1cc(-c2nn(-c3cccc(NC(=O)CCN4CCN(C)CC4)c3)cc2-c2ccncc2)ccc1Cl", "inactive"],
  ["O=c1oc2c(Br)cc(Br)cc2cc1-c1cc(-c2ccc(-c3cc(-c4cc5cc(Br)cc(Br)c5oc4=O)nc(-c4cc5cc(Br)cc(Br)c5oc4=O)c3)cc2)cc(-c2cc3cc(Br)cc(Br)c3oc2=O)n1", "inactive"],
  ["COC1=CC(=O)C(OC)=C(O)C1=O", "inactive"],
  ["O=S(=O)(Nc1cc(Sc2cccc3cccnc23)c(O)c2ccccc12)c1ccc(F)cc1", "active"],
  ["Cc1cc(N2CCN(CC(=O)Nc3ccc4c(ccn4Cc4ccccc4)c3)CC2)nc(N2CCCCCC2)n1", "active"],
  ["COc1ccc(/C=C/C(=O)c2cc3c(N)c(C(=O)Nc4ccccc4Cl)sc3nc2C)cc1", "active"],
  ["Cc1nc(-n2[nH]c(=O)ccc2=O)sc1N=Nc1ccccc1", "inactive"],
  ["CNC(=O)c1cc(Oc2ccc3nc(NC(=O)Nc4ccc(C(F)(F)F)cc4)sc3c2)ccn1", "inactive"],
  ["O=C1c2cc3c(cc2-c2c1c1ccc(Cl)cc1c(=O)n2CCCn1ccnc1)OCO3", "active"]
]}

* * *

# Test system: HCC-2998 colon
# Protocol: NCI-60 one-dose screen, 48 h
# Experimental conditions: 10 µM unless noted
# Procedure: Growth inhibition of the HCC-2998 human tumor cell line is measured as a screen for anti-cancer activity. Cells are grown in 96 well plates and exposed to the test compound for 48 hours. Compounds are tested at a single concentration, which is 10^-5 M for most compounds. The reported endpoint is percent growth (GI% or GIPRCNT), where numbers from 0 - 100% represent growth inhibition, and numbers from -100% - 0 represent cell death. For example, a value of 40 represents 60% growth inhibition. […]
About 83,000 compounds went through this panel and 20% of them were active in at least one assay; those are over-represented in the sample as a whole. Active and inactive are the calls of the source. How the source made its calls: active means growth percent below 10; inactive means the rest.
Possible outcomes: active, inactive

{"columns": ["Mol", "Label class"],
 "data": [
  ["C=C1C(=O)O[C@H]2[C@H]1CC/C(CNS(=O)(=O)c1ccc3ccccc3c1)=C\\CC[C@@]1(C)O[C@@H]21", "active"],
  ["COc1ccc(-c2cc(-c3cc(OC)c(OC)c(OC)c3)c(C#N)c(=O)n2CCCCC(=O)O)cc1", "inactive"],
  ["Cc1nn(-c2nc(-c3cc4ccccc4oc3=O)cs2)c(C)c1N=Nc1ccccc1", "inactive"]
]}

* * *

# System: OVCAR-8 ovarian
# Protocol: NCI-60 one-dose screen, 48 h (100 = growth as untreated, 0 = no growth, -100 = all killed)
# Experimental conditions: 10 µM unless noted
About 83,000 compounds went through this panel and 20% of them were active in at least one assay; those are over-represented in the sample as a whole.
The threshold is inclusive: growth of exactly 90% counts as condition met; values below receive condition not met.

{"columns": ["Molecule", "Label class"],
 "data": [
  ["N=C(N)c1ccc(-c2ccc(-c3ccc(F)cc3)s2)nc1", "condition not met"],
  ["Cc1ccc(NC(=O)N/C(N)=N/c2nc(=O)c3ccccc3s2)cc1", "condition met"],
  ["C=C(CN1CC=CCC1)[C@@H]1CC[C@]2(COC(C)=O)CC[C@]3(C)[C@H](CC[C@@H]4[C@@]5(C)CC[C@H](O)C(C)(C)[C@@H]5CC[C@]43C)[C@@H]12", "condition met"],
  ["CCCCCC#CC1OC23CCCCC2C(C#N)(C(=N)O3)C1(C#N)C#N (stereo not given)", "condition not met"],
  ["CC[C@]1(O)CC2CN(CCc3c([nH]c4ccccc34)C(C(=O)OC)(c3cc4c(cc3OC)N(C=O)[C@H]3[C@@](O)(C(=O)OC)[C@H](OC(C)=O)[C@]5(CC)[C@@H]6C[C@@H]6CN6CC[C@]43[C@@H]65)C2)C1 (stereo not given in full)", "condition not met"]
]}

* * *

# Tested on: OVCAR-5 ovarian
# Protocol: NCI-60 one-dose screen, 48 h (100 = growth as untreated, 0 = no growth, -100 = all killed)
# Experimental conditions: 10 µM unless noted
About 83,000 compounds went through this panel and 20% of them were active in at least one assay; those are over-represented in the sample as a whole.
Endpoint name: growth (%)

{"columns": ["Compound", "Endpoint name", "Readout value"],
 "data": [
  ["N=c1ccccn1CCO", "growth", 99],
  ["COc1ccc(/C=C(\\C#N)c2cc3ccccc3[nH]2)cc1", "growth", 42.5],
  ["CCOC(=O)C(=CCC(C)C)C(=O)OCC", "growth", 95.8],
  ["CN1CCCc2cc(/C=C3\\SC(=S)N(C(Cc4ccc(O)cc4)C(=O)O)C3=O)ccc21 (stereo not drawn)", "growth", 101],
  ["N#C/C(=C\\c1ccc(Br)cc1)n1nnc2c(F)cccc21", "growth", 1.16],
  ["CC(=O)N1N=C(c2ccc(Nc3nc(Nc4ccc(F)cc4)nc(Nc4ccc(Cl)cc4)n3)cc2)CC1c1ccc(N(C)C)cc1 (stereo not drawn)", "growth", 65.9],
  ["CC1(C)C(N)=Nc2cc(OCCCN3Cc4ccc(OCCc5cn(CC(=O)N6CCC(CCN7CCCC7)CC6)nn5)cc4C3)c(OCC3CC3)cc21", "growth", 95],
  ["CN(C)C1CCN(C(=O)c2ccc(NC(=O)Nc3ccc(-c4nc(N5CCOCC5)c5cccn5n4)cc3)cc2)CC1", "growth", -0.314]
]}

* * *

# System: UACC-62 melanoma
# Protocol: NCI-60 one-dose screen, 48 h (100 = growth as untreated, 0 = no growth, -100 = all killed)
# Experimental conditions: 10 µM unless noted
This is part of a sample that, as a whole, favours compounds with a hit. Of some 83,000 tested, about 20% had one in any assay.
Item-by-item account of growth

{"columns": ["Mol", "Readout unit", "growth"],
 "data": [
  ["CC/C(=C(/c1ccc(Cl)cc1)c1ccc(OCCN2CCOCC2)cc1)c1ccccc1", "%", 88.2],
  ["Cc1ccc(/C=C(\\C#N)c2cc3ccccc3[nH]2)cc1", "%", 22.7],
  ["Cn1cc(-c2csc(-c3cn(CCOC(N)=O)c4ccccc34)n2)c2cccnc21", "%", 72.2],
  ["CCCCCCCCCCCCCCCCCCn1cc(COc2ccc(C=O)cc2)nn1", "%", 91.2],
  ["COC(=O)[C@H]1Cc2c([nH]c3ccccc23)[C@@H](c2cccs2)N1", "%", 89.5],
  ["COc1ccc(-c2csc(NC(=O)CN3CCN(CCO)CC3)n2)cc1NS(=O)(=O)c1cccc2c(N(C)C)cccc12", "%", 89],
  ["COc1ccc(-c2cc3cnc4ccccc4c3oc2=O)cc1", "%", 96.5],
  ["COc1nc2ccc(C)cc2cc1/C=[N+](\\[O-])c1ccccc1", "%", 76.6]
]}

* * *

# Tested on: SN12C renal
# Protocol: NCI-60 one-dose screen, 48 h
# Experimental conditions: 10 µM unless noted
About 83,000 compounds went through this panel and 20% of them were active in at least one assay; those are over-represented in the sample as a whole. The source made the active and inactive calls. How the source made its calls: active means growth percent below 10; inactive means the rest.
Outcomes: true (active), false (inactive)

{"columns": ["Compound", "Experimental target", "Label class"],
 "data": [
  ["C=C1C(=O)O[C@H]2[C@H]1CC/C(COC(=O)NCc1ccc(Cn3c(=O)sn(CCCI)c3=O)cc1)=C\\CC[C@@]1(C)O[C@@H]21", "SN12C renal", "true"],
  ["CCN(CC)CCCN1C(=O)c2c(c(C)c3c(oc4cc(OC)ccc43)c2C)C1=O", "SN12C renal", "false"],
  ["C=C(C)[C@@H]1CC[C@]2(C(=O)O)CC[C@]3(C)[C@H](CC[C@@H]4[C@@]5(C)CCC(N)C(C)(C)[C@@H]5CC[C@]43C)[C@@H]12 (stereo not given in full)", "SN12C renal", "true"],
  ["O=C(NCc1ccc(Cn2c(=O)sn(-c3ccc(Cl)cc3)c2=O)cc1)OCc1ccc2c(Cl)cc(Cl)c(O)c2n1", "SN12C renal", "false"],
  ["Cc1cnc(C(=O)NNc2nc3sc4c(c3c(=O)[nH]2)C(C)CCC4)cn1 (stereo not given)", "SN12C renal", "false"],
  ["c1ccc(Cc2cccc[n+]2C(c2ccccc2)c2ccccc2)cc1", "SN12C renal", "false"],
  ["CC[C@@H]1NC(=O)[C@H]([C@H](O)[C@H](C)C/C=C/c2ccc(CN3C(=O)C(C)=C(C)C3=O)cc2)N(C)C(=O)[C@H](C(C)C)N(C)C(=O)[C@H](CC(C)C)N(C)C(=O)[C@H](CC(C)C)N(C)C(=O)[C@@H](C)NC(=O)[C@H](C)NC(=O)[C@H](CC(C)C)N(C)C(=O)[C@H](C(C)C)NC(=O)[C@H](CC(C)C)N(C)C(=O)CN(C)C1=O", "SN12C renal", "false"],
  ["O=C([C@H]1C[C@H]1c1ccc(S(F)(F)(F)(F)F)cc1)N1CCN(c2cc(Cl)ccc2C(F)(F)F)CC1", "SN12C renal", "false"],
  ["Cc1ccc2nc3ccccc3c(NCc3ccc(Cl)cc3)c2c1", "SN12C renal", "false"],
  ["O=C1OCC2=C1C(c1cccc(C(F)(F)F)c1)c1cc3c(cc1N2CCO)CCC3 (stereo not given)", "SN12C renal", "false"]
]}
